Each recorded value in this set is attributed to PubChem BioAssay AID504710.

TARGET_UNDER_TEST: Hexokinase HKDC1 (Homo sapiens) (UniProt Q2TB90)
Sequence (Q2TB90 whole entry, looked up): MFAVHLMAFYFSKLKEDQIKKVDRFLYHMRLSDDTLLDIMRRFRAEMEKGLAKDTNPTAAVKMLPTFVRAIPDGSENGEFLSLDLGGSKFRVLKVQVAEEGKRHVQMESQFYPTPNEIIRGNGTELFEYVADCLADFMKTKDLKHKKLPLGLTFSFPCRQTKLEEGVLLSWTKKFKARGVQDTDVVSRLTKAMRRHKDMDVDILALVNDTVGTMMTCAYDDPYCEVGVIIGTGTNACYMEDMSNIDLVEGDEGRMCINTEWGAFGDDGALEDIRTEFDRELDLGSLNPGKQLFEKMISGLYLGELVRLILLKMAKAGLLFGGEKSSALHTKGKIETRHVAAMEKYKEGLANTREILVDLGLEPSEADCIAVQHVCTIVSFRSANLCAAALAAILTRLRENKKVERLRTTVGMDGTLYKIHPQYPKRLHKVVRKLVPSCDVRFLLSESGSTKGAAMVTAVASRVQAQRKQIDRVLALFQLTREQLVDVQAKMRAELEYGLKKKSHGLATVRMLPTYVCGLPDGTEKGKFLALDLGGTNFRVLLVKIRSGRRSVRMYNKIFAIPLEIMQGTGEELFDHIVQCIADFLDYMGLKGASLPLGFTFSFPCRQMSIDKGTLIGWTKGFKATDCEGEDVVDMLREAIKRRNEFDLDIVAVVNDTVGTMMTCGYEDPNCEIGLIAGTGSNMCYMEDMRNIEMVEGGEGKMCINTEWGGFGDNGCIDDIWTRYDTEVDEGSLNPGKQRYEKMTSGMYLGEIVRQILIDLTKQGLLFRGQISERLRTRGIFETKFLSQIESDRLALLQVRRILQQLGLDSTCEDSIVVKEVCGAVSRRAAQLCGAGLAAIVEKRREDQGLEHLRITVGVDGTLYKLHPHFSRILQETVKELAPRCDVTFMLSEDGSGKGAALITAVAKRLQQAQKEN
PROCEDURE_DETAILS: HKDC1 hexokinase inhibitors, confirmation, biochemical, single concentration (AID 504710)
CONDITION: recombinant HKDC1, G6PDH/diaphorase/resazurin fluorescence; at 20 µM
The source made the active and inactive calls.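 How the source made its calls: active means inhibition reaching about 16% in any single replicate (limit read from the data); inactive means the rest.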
Allowed answers: active, inactive

q: Given `O=C1c2ccccc2-c2onc3ccc(Oc4ccccc4)c1c23` , state the outcome it received in this test.
a: active

q: Next record, please: `NC1=C(Cl)C(=O)c2ccc(S(N)(=O)=O)cc2C1=O`
a: inactive

q: Would you kindly repeat that for `Cc1cc(C)nc(/N=c2/ssnc2Cl)c1` ?
a: inactive

q: // repeat for `O=C(O)c1ccc(NC2=C(Cl)C(=O)c3ccccc3C2=O)cc1` and report
a: inactive

q: Follow-up item: CCCc1nc2oc3c(NCC4CCCO4)ncnc3c2c2c1COC(C)(C)C2 (stereo unspecified)
a: active

q: Repeat for the following compound: `COC1=CC(=O)C(OC)=C(OC)C1=O`
a: active

----------
TARGET_UNDER_TEST: Hexokinase HKDC1 (Homo sapiens)
PROCEDURE_DETAILS: HKDC1 hexokinase inhibitors, confirmation, biochemical, single concentration (AID 504710)
CONDITION: recombinant HKDC1, G6PDH/diaphorase/resazurin fluorescence; at 20 µM
The source made the active and inactive calls.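 How the source made its calls: active means inhibition reaching about 16% in any single replicate (limit read from the data); inactive means the rest.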
Please answer using one outcome listed in active, inactive

q: Recorded call for `Cc1ccc(C2=NNC(=Nc3ccc(F)cc3)SC2)cc1` ?
a: inactive

q: Okay, and `Cc1ccc2oc(=O)c3cnn(CC(=O)N4CCCCCC4)c3c2c1` ?
a: inactive

q: Can you handle `Cc1ccc(C)c(S(=O)(=O)Nc2cc(SCC(=O)O)c(O)c3ccccc23)c1` next?
a: active

q: Here is the next compound: `CCCc1nc2c(c(=O)c3ccccc3n2C)c(=O)n1-c1ccc(F)cc1`
a: active

q: Can you check `O=C(CSc1n[nH]c(-c2cccnc2)n1)Nc1ccc([N+](=O)[O-])cc1Br` next?
a: active

q: Now consider `O=C1C(Cl)=C(N2CCC(C(=O)O)CC2)C(=O)c2ccccc21` .
a: active

q: Also, `Cc1nc2c3cc(F)ccc3n(Cc3ccccc3)c2s1` please.
a: inactive

q: And what about the compound `Cc1cc(C)c(S(=O)(=O)Nc2cc(SCC(=O)O)c(O)c3ccccc23)cc1C` ?
a: active

q: What would you report for `O=S(=O)(Nc1ccc(O)c2ccccc12)c1cccs1` ?
a: active

q: Now try `COc1ccc(OC)c2[nH]c(=O)c(CCNC(=O)c3cc4ccccc4o3)cc12` .
a: active

q: And `O=NNc1nc2ccccc2n1Cc1ccccc1` ?
a: inactive

----------
TARGET_UNDER_TEST: Hexokinase HKDC1 (Homo sapiens) (UniProt Q2TB90)
PROCEDURE_DETAILS: HKDC1 hexokinase inhibitors, confirmation, biochemical, single concentration (AID 504710)
CONDITION: recombinant HKDC1, G6PDH/diaphorase/resazurin fluorescence; at 20 µM; hits give high values
ATTRIBUTE_MEASURED: inhibition (%)
Please respond with the number in % and leave the unit unwritten.

q: Request: inhibition, test system Hexokinase HKDC1 (Homo sapiens) (UniProt Q2TB90), entry `O=C1C(SCCO)=C(SCCO)C(=O)c2ccccc21`
a: 84.1

q: Now the same for `COC(=O)c1ccccc1NC1=C/C(=N\S(=O)(=O)c2cccs2)c2ccccc2C1=O`
a: 62.6

q: Let us now turn to CCC(C)C(N)C1=NC(C(=O)N[C@@H](CC(C)C)C(=O)N[C@H](CCC(=O)[O-])C(=O)N[C@H](C(=O)N[C@H]2CCCCNC(=O)[C@H](CC(N)=O)NC(=O)[C@@H](CC(=O)[O-])NC(=O)[C@H](Cc3cnc[nH]3)NC(=O)[C@@H](Cc3ccccc3)NC(=O)[C@H]([C@@H](C)CC)NC(=O)[C@@H](CCCN)NC2=O)[C@@H](C)CC)CS1.[Zn+2] (stereo partly drawn)
a: 74.9

q: And for `Cc1cc(Oc2ccc(C(C)(C)C)cc2)nc(N2CCOCC2)n1` ?
a: -37

q: What do you have for `CCOC(=O)c1ccc(NC(=O)CSc2ccc(-c3ccccn3)nn2)cc1` ?
a: 31.3

q: What do you have for `CN(C)c1ccc(Cc2cc3c(O)ccc(O)c3cc(Cc3ccc(N(C)C)cc3)c2=O)cc1` ?
a: 44.7

q: Now this one: `O=S(=O)(O)c1ccc(O)c2cc(Nc3ccccc3)ccc12`
a: 44.1

q: And what about the compound `O=C1C(Cl)=C(Oc2ccccc2)C(=O)c2ccccc21` ?
a: 77.7

----------
TARGET_UNDER_TEST: Hexokinase HKDC1 (Homo sapiens) (UniProt Q2TB90)
PROCEDURE_DETAILS: HKDC1 hexokinase inhibitors, confirmation, biochemical, single concentration (AID 504710)
CONDITION: recombinant HKDC1, G6PDH/diaphorase/resazurin fluorescence; at 20 µM; hits give high values
ATTRIBUTE_MEASURED: inhibition (%)
The response must be a number in % with no trailing unit.

q: Any idea what its inhibition is? The compound is `NC1=CC(=O)C(=O)c2ccccc21`
a: 48.7

q: Subsequent entry: `COc1ccc(-c2[nH]c(-c3ccc(SC)cc3)nc2SCC(=O)Nc2nccs2)cc1`
a: -36.1

q: Repeat for the following compound: `NS(=O)(=O)c1ccc(N=Nc2c(=O)[nH]n3c(=O)c4c([nH]c23)CCCC4)cc1`
a: 72.5

q: Same again, this time with CC1COCC(C)N1C1=C(Cl)C(=O)c2ccccc2C1=O (stereo not given)
a: 43.5

q: Similarly, `CCc1nc2c(c(=O)c3ccccc3n2C)c(=O)n1-c1ccc(F)cc1` ?
a: 72.7

q: Record: `CCOC(=O)c1c(NC(=O)CSc2nnnn2-c2ccc(OC)cc2)sc(C)c1C`
a: -42.3

q: And what about the compound `O=C1C(Nc2ccc(O)cc2)=C/C(=N/S(=O)(=O)c2cccs2)c2ccccc21` ?
a: 56.9

q: Would you kindly repeat that for `Cc1ccc(S(=O)(=O)/N=C2\C=C(Nc3cccc(C(=O)O)c3)C(=O)c3ccccc32)c(C)c1` ?
a: 57.8

q: And `NC(=O)C1CCN(C2=C(Cl)C(=O)c3ccccc3C2=O)CC1` ?
a: 73

q: Same read-out for `COc1ccc(N=C2NN=C(c3ccc4c(c3)OCCO4)CS2)cc1` ?
a: -33.1

----------
TARGET_UNDER_TEST: Hexokinase HKDC1 (Homo sapiens)
PROCEDURE_DETAILS: HKDC1 hexokinase inhibitors, confirmation, biochemical, single concentration (AID 504710)
CONDITION: recombinant HKDC1, G6PDH/diaphorase/resazurin fluorescence; at 20 µM; hits give high values
Binned inhibition; ranges: group 1 = under -30%, group 2 = from -30% up to 50%, group 3 = 50% and over

q: Field: class (inhibition) — entry: `O=S(=O)(Nc1cc(Sc2ncn[nH]2)c(O)c2ccccc12)c1ccccc1`
a: group 2

q: How about this molecule: `CC(=NNC(=S)SCc1ccccc1)c1ccccn1`
a: group 2

q: Another molecule to look at: `Cc1ccc(N=Nc2ccc(O)c3ncccc23)cc1C`
a: group 1

q: # repeat for CC(=O)NC1C(=O)N(CCN2CCOCC2)c2ccc(C)cc21 (centres undefined)
a: group 3

q: Same read-out for `CCOC(=O)c1ccc(NC2=CC(=O)C(=O)c3ccccc32)cc1` ?
a: group 2

q: What about `O=c1[nH]c2ccccc2n2c(-c3ccccc3)nnc12` ?
a: group 3

----------
TARGET_UNDER_TEST: Hexokinase HKDC1 (Homo sapiens)
PROCEDURE_DETAILS: HKDC1 hexokinase inhibitors, confirmation, biochemical, single concentration (AID 504710)
CONDITION: recombinant HKDC1, G6PDH/diaphorase/resazurin fluorescence; at 20 µM; hits give high values
ATTRIBUTE_MEASURED: inhibition (%)
Express the result in % but write the number alone.

q: # query: inhibition of entry `CCOC(=O)C1=C(Cc2ccc(Cl)cc2)C(=O)c2ccccc2C1=O`
a: 39.3

q: Same thing, different molecule: `N#Cc1ccc(CSc2nnc(NC(=O)c3ccc4ncsc4c3)s2)cc1`
a: 40.7

q: Repeat for the following molecule: `O=C(/C=C/c1ccc(Br)cc1)NC(=S)Nc1ccc(S(=O)(=O)Nc2nccs2)cc1`
a: 39.5

----------
TARGET_UNDER_TEST: Hexokinase HKDC1 (Homo sapiens)
PROCEDURE_DETAILS: HKDC1 hexokinase inhibitors, confirmation, biochemical, single concentration (AID 504710)
CONDITION: recombinant HKDC1, G6PDH/diaphorase/resazurin fluorescence; at 20 µM; hits give high values
Hi, to clarify the labels: True covers inhibition from 20% upward, False covers anything below 20%.

q: Does `CC(C)c1nc2oc3c(NCCO)ncnc3c2c2c1COC(C)(C)C2` have a reported inhibition of at least 20%?
a: True

q: Repeat with `Cc1onc(-c2ccccc2)c1C(=O)NNC(=S)NC(=O)c1ccc(Br)cc1`
a: False

q: Now consider `O=C1C(C2=C(O)c3ccccc3C2=O)=Nc2ccccc21` and answer again.
a: False

q: Please give the result for `Nc1nc(-c2cccc(Br)c2)cs1` too.
a: False

q: Another molecule to check: O=C(NCCc1ccccc1)C(c1cccs1)N(C(=O)CCl)c1ccc(Cl)cc1 (stereo not given)
a: True

q: Then CC(=O)Oc1cccc2c1C(=O)C1CC=CC(OC(C)=O)C1C2=O (stereo not given) ?
a: False

q: Next molecule: `Cc1ccc(S(=O)(=O)/N=C2/C=C(Sc3ncn[nH]3)C(=O)c3ccccc32)cc1`
a: True

q: Ok, now `O=c1c2ccccc2nc2n1CCC2`
a: True

q: // next record `CC(=O)Nc1ccc(C2=NNC(=Nc3ccc(S(=O)(=O)N4CCOCC4)cc3)SC2)cc1`
a: False

q: Subsequent entry: `Clc1ccc(N=c2ssnc2Cl)nc1`
a: False

q: Try the molecule `CCCc1nc2oc3c(NCCOCCO)ncnc3c2c2c1COC(C)(C)C2`
a: True

q: Okay, and `O=C(O)c1ccc(NC2=C/C(=N/S(=O)(=O)c3ccccc3)c3ccccc3C2=O)cc1` ?
a: True

q: # repeat for `O=C1C(Cl)=C(NC(=O)c2ccccc2)C(=O)C(Cl)=C1NC(=O)c1ccccc1`
a: True

q: Now the same for CC(=O)NC1C(=O)N(CCN2CCOCC2)c2ccc(Cl)cc21 (stereo not given)
a: True

q: Same thing, different molecule: `O=C(NNC(=S)Nc1ccc(Cl)c(Cl)c1)c1ccccn1`
a: False
